# System: S. invicta workers
# assay-explanation: Fumigant toxicity in sealed glass flask
# Type: in vivo, Solenopsis invicta
# assay-context: Solenopsis invicta, 24 h, colony 2, 24 h
measured-quantity: LC50

The examples below pair each entry with its known result.
COC(=O)c1cccc(OC)c1 [M3MOB, methyl 3-methoxybenzoate] | 0.54 µg/mL
COC(=O)c1cccc(C)c1 [M3MB, methyl 3-methylbenzoate] | 0.7 µg/mL
C=COC(=O)c1ccccc1 [VB, vinyl benzoate] | 0.77 µg/mL

Please look at the following molecule next.
Enquiry: What value of LC50 on S. invicta workers does COC(=O)c1ccccc1Cl [M2CB, methyl 2-chlorobenzoate] have?
Return: 0.77 µg/mL

----------
# Test system: S. invicta workers
# assay-context: colony 1, 24 h
For each record, check the reported LD50: if it is below 100 μg/ant write Y, else write N.

Past entries and their recorded results:
CCCCCCOC(=O)c1ccccc1 [nHB, n-hexyl benzoate] | Y
COC(=O)c1ccccc1 [MB, methyl benzoate] | N
COC(=O)c1cccc(OC)c1 [M3MOB, methyl 3-methoxybenzoate] | N
CC(C)COC(=O)c1ccccc1 [iBB, iso-butyl benzoate] | Y
CCCCOC(=O)c1ccccc1 [nBB, n-butyl benzoate] | Y
COC(=O)c1ccccc1OC [M2MOB, methyl 2-methoxybenzoate] | Y

Enquiry: API: query returns whether the compound falls strictly under 100 μg/ant in LD50. Query: CCOC(=O)c1ccccc1 [EB, ethyl benzoate]
Return: N

Enquiry: API: query returns whether the compound falls strictly under 100 μg/ant in LD50. Query: COC(=O)c1cccc(C)c1 [M3MB, methyl 3-methylbenzoate]
Return: Y

Enquiry: API: query returns whether the compound falls strictly under 100 μg/ant in LD50. Query: CCCOC(=O)c1ccccc1 [nPrB, n-propyl benzoate]
Return: N

Enquiry: API: query returns whether the compound falls strictly under 100 μg/ant in LD50. Query: CCCCCOC(=O)c1ccccc1 [nPeB, n-pentyl benzoate]
Return: Y

----------
# Tested on: S. invicta workers
# assay-context: dose 77.9 μg/ant, 24 h
# key: entry, value: mean mortality
Report only the number, with the unit % understood.

CCCOC(=O)c1ccccc1 [nPrB, n-propyl benzoate] | 45.5
COC(=O)c1ccccc1 [MB, methyl benzoate] | 7.67
CCCCCOC(=O)c1ccccc1 [nPeB, n-pentyl benzoate] | 99.26
COC(=O)c1ccccc1OC [M2MOB, methyl 2-methoxybenzoate] | 55.74

Please look at the following molecule next.
Enquiry: Please look up its mean mortality: COC(=O)c1cccc(OC)c1 [M3MOB, methyl 3-methoxybenzoate]
Return: 47.23

----------
# Test system: H. halys nymphs
# assay-explanation: Nymphicidal toxicity, treated filter paper in glass vial
# Assay type: in vivo
# assay-context: 2nd stage nymphs, 24 hr
# Method: Toxicities of MB, some compounds of formula 1, and commercial pesticides on H. halys nymphs: The bioassays were carried out in glass vials (20 mL), following a published procedure (Nielsen, A. L., et al., J. Econ. Entomol., 101: 1439-1442 (2008)). Filter paper was cut into round shape pieces (2.4 cm diameter). […] The mortality was assessed after 24 hr.
# key: entry, value: LC50 (95% CL)

The examples below pair each entry with its known result.
COC(=O)c1ccccc1OC [M2MOB, methyl 2-methoxybenzoate] | 1.530 (1.309-1.951) μL/vial
COC(=O)c1ccccc1Cl [M2CB, methyl 2-chlorobenzoate] | 1.302 (1.137-1.610) μL/vial
C=COC(=O)c1ccccc1 [VB, vinyl benzoate] | 1.131 (0.757-1.337) μL/vial
COC(=O)c1ccccc1C [M2MB, methyl 2-methylbenzoate] | 0.974 (0.827-1.109) μL/vial

Enquiry: Please look up its LC50 (95% CL): C/C(=N\C#N)N(C)Cc1ccc(Cl)nc1 [AP, acetamiprid, reference compound]
Return: 0.257 (0.169-0.340) μL/vial
